Reference source: patent US9808003B2

test system: Spring Wheat “Freya”; experiment: Test 1B glasshouse assay, post-emergence herbicidal activity against cereal crops; assay type: in vivo; details: herbicide 60 g/ha, cloquintocet-mexyl 0 g/ha
Returns: string. Value is 1 if measured Percentage Phytotoxicity Spring Wheat “Freya” is below 60%, and 0 if it is greater than or equal to it.

{"molecule": "Cc1cc(C)c(C2C(=O)CC(CCNC(=O)c3cc(Cl)ccn3)C2=O)c(C)c1 (racemic)", "target desc": "Spring Wheat “Freya”", "class name": 0}
{"molecule": "Cc1cc(C)c(C2C(=O)CC(CCNC(=O)c3ccc(Br)cn3)C2=O)c(C)c1 (racemic)", "target desc": "Spring Wheat “Freya”", "class name": 1}
{"molecule": "Cc1cc(C)c(C2C(=O)C[C@H](CCNC(=O)c3cc(Cl)ccn3)C2=O)c(C)c1 (stereo partly shown)", "target desc": "Spring Wheat “Freya”", "class name": 1}
{"molecule": "Cc1cc(C)c(C2C(=O)C[C@@H](CCNC(=O)c3cc(Cl)ccn3)C2=O)c(C)c1 (stereo partly shown)", "target desc": "Spring Wheat “Freya”", "class name": 0}
{"molecule": "Cc1cc(C)c(C2C(=O)C[C@@H](CCNC(=O)c3cccc(F)n3)C2=O)c(C)c1 (stereo partly shown)", "target desc": "Spring Wheat “Freya”", "class name": 0}
{"molecule": "Cc1cc(C)c(C2C(=O)C[C@H](CCNC(=O)c3cccc(F)n3)C2=O)c(C)c1 (stereo partly shown)", "target desc": "Spring Wheat “Freya”", "class name": 1}
{"molecule": "Cc1cc(C)c(C2C(=O)CC(CCNC(=O)c3cccc(F)n3)C2=O)c(C)c1 (racemic)", "target desc": "Spring Wheat “Freya”", "class name": 0}

* * *

Reported values of Post-emergence herbicidal activity, percentage phytotoxicity, POAAN for individual entries
Tested on: Poa annua (POAAN)
Assay: Test 1B glasshouse assay, post-emergence herbicidal activity against grassy weeds
Assay type: in vivo
Conditions: 30 g/ha herbicide, 50 g/ha cloquintocet-mexyl, 14 DAA
Method: Biological Example 1B tests the herbicidal activity of“technical” compounds (i.e. compounds not previously formulated before the test), as the herbicides under test. […] Herbicidal activity (phytotoxicity) is evaluated visually, and an assessed percentage phytotoxicity score is given for each herbicidal application on each plant species (with 100%=total damage to plant; 0%=no damage to plant; the assessment is recorded in increments of 1%). […]
endpoint label: Post-emergence herbicidal activity, percentage phytotoxicity, POAAN (%)

{"compound": "Cc1cc(C)c(C2C(=O)CC(CCNC(=O)c3cccc(F)n3)C2=O)c(C)c1 (racemic)", "target desc": "Poa annua (POAAN)", "result": 0}
{"compound": "Cc1cc(C)c(C2C(=O)C[C@@H](CCNC(=O)c3cccc(F)n3)C2=O)c(C)c1 (some centres unmarked)", "target desc": "Poa annua (POAAN)", "result": 0}
{"compound": "CCc1cc(-n2cc(Cl)cn2)cc(C)c1C1C(=O)C[C@@H](CCNC(=O)c2ccccn2)C1=O (some centres unmarked)", "target desc": "Poa annua (POAAN)", "result": 73}
{"compound": "Cc1cc(C)c(C2C(=O)C[C@H](CCNC(=O)c3ccc(Br)cn3)C2=O)c(C)c1 (some centres unmarked) [Compound A120B]", "target desc": "Poa annua (POAAN)", "result": 0}
{"compound": "Cc1cc(C)c(C2C(=O)CC(CCNC(=O)c3cc(Cl)ccn3)C2=O)c(C)c1 (racemic)", "target desc": "Poa annua (POAAN)", "result": 0}
{"compound": "Cc1cc(C)c(C2C(=O)CC(CCNC(=O)c3ccc(Br)cn3)C2=O)c(C)c1 (racemic)", "target desc": "Poa annua (POAAN)", "result": 3}
{"compound": "Cc1cc(C)c(C2C(=O)C[C@@H](CCNC(=O)c3ccc(Br)cn3)C2=O)c(C)c1 (some centres unmarked) [Compound A120A]", "target desc": "Poa annua (POAAN)", "result": 3}
{"compound": "Cc1cc(C)c(C2C(=O)C[C@@H](CCNC(=O)c3cc(Cl)ccn3)C2=O)c(C)c1 (some centres unmarked)", "target desc": "Poa annua (POAAN)", "result": 0}
